Value source: patent US20230270764A1

Tested on: BV2 microglial cells
assay_comment: α-synuclein-induced TNFα secretion by BV2 microglia cell cultures
Assay type: cell-based, murine
test_parameters: Mus musculus, BV-2, addition of 2.5 µM CBD; read-out: celecoxib IC50, α-synuclein-induced TNFα release
pIC50: −log10 of the molar value.

| structure_notation | pIC50 |
| --- | --- |
| Cc1ccc(-c2cc(C(F)(F)F)nn2-c2ccc(S(N)(=O)=O)cc2)cc1 | 5.77 |

---

Test system: BV2 microglial cells
assay_comment: LPS-induced IL-6 release by BV2 microglia cell cultures (ELISA)
Assay type: cell-based, murine
test_parameters: Mus musculus, BV-2, Example 6; addition of 5 µM CBDV; read-out: CBD IC50, LPS-induced IL-6 release
readout_kind: IC50 (nM)

| structure_notation | units_symbol | recorded_result |
| --- | --- | --- |
| C=C(C)[C@@H]1CCC(C)=C[C@H]1c1c(O)cc(CCCCC)cc1O | nM | 1700 |
